Record: compiled pKi on Glucocorticoid receptor (Homo sapiens, UniProt P04150) from multiple reports.
Kindly note that pKi refers to -log10 of the concentration in mol/L and answer with the value alone.

[[record]]
compound = "CC(C)(C(=O)Nc1nncs1)C(c1ccccc1)c1ccc2c(-c3ccc(F)cc3F)ncn2c1 (centres undefined)"
measured_on = "Glucocorticoid receptor (Homo sapiens, UniProt P04150)"
value_measured = 9.00


**Query** # get_value(readout= pKi, system= Glucocorticoid receptor (Homo sapiens, UniProt P04150)) for `CCNC(=O)c1ccccc1CC[C@]1(O)CCC2=Cc3c(cnn3-c3ccc(F)cc3)C[C@@]21C`
**Result** 8.70

**Query** Record lookup: for Glucocorticoid receptor (Homo sapiens, UniProt P04150), what pKi belongs to C[C@H]1c2c(cc(Cl)c(-c3cccc4cc[nH]c34)c2Cl)NC(C)(C)[C@@H]1O (racemic) ?
**Result** 6.80

###

- MEASURED ON: Glucocorticoid receptor (Homo sapiens, UniProt P04150)
- Sequence (P04150 whole entry): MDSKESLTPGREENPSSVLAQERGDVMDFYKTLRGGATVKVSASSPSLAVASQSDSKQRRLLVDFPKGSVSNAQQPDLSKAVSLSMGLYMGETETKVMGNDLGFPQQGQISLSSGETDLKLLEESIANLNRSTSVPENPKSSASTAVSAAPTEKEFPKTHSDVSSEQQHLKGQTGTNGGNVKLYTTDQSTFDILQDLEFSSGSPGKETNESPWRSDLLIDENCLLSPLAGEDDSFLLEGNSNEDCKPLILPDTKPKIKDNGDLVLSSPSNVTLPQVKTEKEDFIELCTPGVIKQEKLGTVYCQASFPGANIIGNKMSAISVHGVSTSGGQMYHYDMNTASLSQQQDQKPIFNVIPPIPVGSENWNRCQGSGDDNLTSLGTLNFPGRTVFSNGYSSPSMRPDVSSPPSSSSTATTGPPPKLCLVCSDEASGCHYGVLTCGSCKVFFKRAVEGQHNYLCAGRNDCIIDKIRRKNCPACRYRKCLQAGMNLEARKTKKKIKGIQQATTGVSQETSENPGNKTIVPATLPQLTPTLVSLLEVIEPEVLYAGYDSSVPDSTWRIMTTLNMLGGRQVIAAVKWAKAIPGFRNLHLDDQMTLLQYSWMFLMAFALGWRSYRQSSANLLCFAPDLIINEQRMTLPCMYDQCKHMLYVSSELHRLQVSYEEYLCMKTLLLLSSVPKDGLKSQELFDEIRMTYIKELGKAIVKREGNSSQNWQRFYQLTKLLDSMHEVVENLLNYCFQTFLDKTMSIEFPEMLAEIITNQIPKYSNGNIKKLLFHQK
Here is a set of molecules with reported pKi for Glucocorticoid receptor (Homo sapiens, UniProt P04150), compiled from the literature.
pKi here is simply -log10 of the concentration when that concentration is written in mol/L.

Example cases with answers are listed next.
[[record]]
molecule = "CC(C)(C(=O)Nc1nccs1)C(c1ccccc1)c1ccc(O)c(F)c1 (racemic)"
measured_on = "Glucocorticoid receptor (Homo sapiens, UniProt P04150)"
parameter_measured = "pKi"
value_measured = 9.22

[[record]]
molecule = "C[C@H]1c2c(cc(F)c(-c3cccc4c(Cl)c[nH]c34)c2F)NC(C)(C)[C@@H]1OC(=O)NCc1ccccc1 (racemic)"
measured_on = "Glucocorticoid receptor (Homo sapiens, UniProt P04150)"
parameter_measured = "pKi"
value_measured = 8.17

[[record]]
molecule = "CC(C)(C(=O)Nc1nncs1)C(c1ccccc1)c1ccc2c(-c3ccc(F)c(Cl)c3)ncn2c1 (stereo not drawn)"
measured_on = "Glucocorticoid receptor (Homo sapiens, UniProt P04150)"
parameter_measured = "pKi"
value_measured = 8.30

[[record]]
molecule = "CSc1ccccc1/C=C1\\Oc2ccc(F)cc2-c2ccc3c(c21)C(C)=CC(C)(C)N3"
measured_on = "Glucocorticoid receptor (Homo sapiens, UniProt P04150)"
parameter_measured = "pKi"
value_measured = 6.41

[[record]]
molecule = "CC(C)(CNS(=O)(=O)CC(F)(F)F)[C@@H](c1ccccc1)c1ccc2c(cnn2-c2ccc(F)cc2)c1"
measured_on = "Glucocorticoid receptor (Homo sapiens, UniProt P04150)"
parameter_measured = "pKi"
value_measured = 9.19


**Query** What does the data say about its pKi? Entry: `COc1c(O)ccc2c1-c1ccc3c(c1/C(=C/c1cccc(C)n1)O2)C(C)=CC(C)(C)N3`
**Result** 8.80

**Query** Please give the measured pKi for this molecule: `CNC(=O)C[C@H]1COc2ccc(Cl)cc2N1C(=O)c1ccc2c(c1)NC(=O)CO2`
**Result** 6.80
